Recorded values, source PubChem BioAssay (NCATS).

Assay: Quantitative High-Throughput drug screen in 47 multiple myeloma cell lines against the NCATS MIPE library collection: MM1S_ATCC cell viability assay (AID 1918980); further: nearly all actives have a fitted effect of over 45% in size; further: potency means the concentration at half of the fitted maximal effect
Conditions: MM1S myeloma viability, CellTiter-Glo ATP luminescence, 48 h; series mostly up to 45.8 µM
Description: PI: Beverly A. Mock Ph.D. Laboratory of Cancer Biology and Genetics, Center for Cancer Research, National Cancer Institute, National Institute of Health, Bethesda, Maryland […] 5; Detector; 425V; Luminescence; Viewlux PerkinElmer. […] 1. […] Briefly, the corresponding myeloma cell lines were screened in 1,536-well plates with 500 cells, 5-uL per well for inhibition of cell viability (assessed by measuring ATP levels with CellTiterGlo). […]
Records with an inconclusive call do not appear. Activity calls are given as the source filed them. The call rests on the fitted dose curve; in most records, active means well fitted cell-killing curve with a large enough effect; inconclusive means small, poorly fitted or top-dose-only effect, or effect the other way; inactive means no such curve, though single readings can be large or run the other way.
Quantity: Potency

Would you please look over these solved cases?
[[record]]
compound = "Nc1nc(N)c(N=O)c(OCC2CCCCC2)n1"
result = "13.2 µM (active)"

[[record]]
compound = "Clc1ccc(C(Cn2ccnc2)OCc2ccc(Sc3ccccc3)cc2)c(Cl)c1 (stereo not given)"
result = "18.7 µM (active)"

[[record]]
compound = "O=C(NCCO[N+](=O)[O-])c1cccnc1"
result = "4.69 µM (active)"

[[record]]
compound = "CN(c1nccc(=O)[nH]1)C1CCN(c2nc3ccccc3n2Cc2ccc(F)cc2)CC1"
result = "11.8 µM (active)"

[[record]]
compound = "COC(=O)N[C@H](C(=O)N[C@@H](Cc1ccccc1)[C@@H](O)CN(Cc1ccc(-c2ccccn2)cc1)NC(=O)[C@@H](NC(=O)OC)C(C)(C)C)C(C)(C)C"
result = "inactive"

[[record]]
compound = "Cc1nc(-c2ccc(OCC(C)C)c(C#N)c2)sc1C(=O)O"
result = "inactive"


Potency lookup needed for Nc1ccc(S(N)(=O)=O)cc1 , thanks.
inactive

For the compound shown here, O=C(O)c1cccnc1Nc1cccc(C(F)(F)F)c1 , give the reported Potency.
inactive

Please look up its Potency: CN(C)c1ccc2nc3ccc(=[N+](C)C)cc-3sc2c1
2.64 µM (active)

Quick one: Potency of Cc1cccc(C)c1OCC(=O)N[C@@H](Cc1ccccc1)[C@@H](O)C[C@H](Cc1ccccc1)NC(=O)[C@H](C(C)C)N1CCCNC1=O ?
20.9 µM (active)
